Recorded efflux ratio values for a group of compounds are listed next.
- Tested on: human MDR1 P-gp
- ASSAY NAME: Assay D: efflux in MDCK cells transfected with the human MDR1 gene
- Format: in vitro ADME, canine
- ASSAY CONTEXT: dog; MDCK-MDR1 monolayers, pH 7.4, 37° C.; read-out: MDCK efflux ratio (BA/AB)

INPUT: Item CCN(C(=O)c1cccc(F)c1-n1nccn1)[C@@H](C)CNc1ncc(Br)cn1 [Example 4] : provide efflux ratio
OUTPUT: < 3

INPUT: Item CCN(C(=O)c1cc(Cl)ccc1-n1nccn1)[C@@H](C)CNc1cnc(C(F)(F)F)cn1 [Example 10] : provide efflux ratio
OUTPUT: < 3

INPUT: Item CCN(C(=O)c1cc(F)cnc1-n1nccn1)[C@@H](C)CNc1ccc(C(F)(F)F)cn1 [Example 12] : provide efflux ratio
OUTPUT: 3 to 5.5

Further cases:
INPUT: Item C[C@@H](CNc1ncc(C(F)(F)F)cn1)N(CC1CC1)C(=O)c1cccc(F)c1-n1nccn1 [Example 1] : provide efflux ratio
OUTPUT: < 3

----------
Recorded log10(Kb) values for a group of compounds are listed next.
- MEASURED TARGET: human Orexin 1 receptor (Homo sapiens, UniProt O43613)
- Sequence (O43613 whole entry): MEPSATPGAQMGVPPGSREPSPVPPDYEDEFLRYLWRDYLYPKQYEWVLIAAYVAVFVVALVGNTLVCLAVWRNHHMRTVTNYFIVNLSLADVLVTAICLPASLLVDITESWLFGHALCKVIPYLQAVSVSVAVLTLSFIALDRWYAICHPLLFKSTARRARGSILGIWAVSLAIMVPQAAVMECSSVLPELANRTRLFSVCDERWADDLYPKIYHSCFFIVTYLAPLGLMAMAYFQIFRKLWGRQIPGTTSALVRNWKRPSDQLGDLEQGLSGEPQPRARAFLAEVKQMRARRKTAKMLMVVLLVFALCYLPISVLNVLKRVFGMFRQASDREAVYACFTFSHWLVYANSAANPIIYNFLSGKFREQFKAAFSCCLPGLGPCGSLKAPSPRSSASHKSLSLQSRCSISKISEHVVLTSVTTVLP
- ASSAY NAME: Assay A: in vitro testing of OX1R potency, OX1R IP1
- Assay type: cell-based
- ASSAY CONTEXT: 50 nM Orexin A concentration
Remember, log10 of Kb, in nM.

INPUT: Item C[C@@H](CNc1ncc(C(F)(F)F)cn1)N(CCF)C(=O)c1cccc(F)c1-n1nccn1 : provide log10(Kb)
OUTPUT: -0.17

INPUT: Item CCN(C(=O)c1cc(Cl)ccc1-n1nccn1)[C@@H](C)CNc1cnc(C(F)(F)F)cn1 : provide log10(Kb)
OUTPUT: -1.96

INPUT: Item CCN(C(=O)c1cc(Cl)ccc1-n1nccn1)[C@@H](C)CNc1ncc(C(F)(F)F)cn1 : provide log10(Kb)
OUTPUT: -1.49

----------
Recorded Kb values for a group of molecules are listed next.
- MEASURED TARGET: UniProtKB O43613
- ASSAY NAME: Assay A: in vitro testing of OX1R potency, OX1R IP1
- Assay type: cell-based
- ASSAY CONTEXT: 50 nM Orexin A concentration
Supply the numeric figure in nM, leaving out any unit text.

Worked set:
INPUT: Item CCN(C(=O)c1ccc(F)c(F)c1-c1ncccn1)[C@@H](C)CNc1ncc(C(F)(F)F)cn1 : provide Kb
OUTPUT: 0.014

INPUT: Item C[C@@H](CNc1ncc(C(F)(F)F)cn1)N(CC1CC1)C(=O)c1cccc(F)c1-n1nccn1 : provide Kb
OUTPUT: 0.214

INPUT: Item C[C@@H](CNc1ncc(C(F)(F)F)cn1)N(C)C(=O)c1cccc(F)c1-c1ncccn1 : provide Kb
OUTPUT: 0.223

Further cases:
INPUT: Item CCN(C(=O)c1cnc(C)nc1-c1ccccc1)[C@@H](C)CNc1ncc(Br)cn1 : provide Kb
OUTPUT: 0.089

INPUT: Item CCN(C(=O)c1cccc(F)c1-n1nccn1)[C@@H](C)CNc1ncc(Br)cn1 : provide Kb
OUTPUT: 0.116

INPUT: Item CCN(C(=O)c1cccc(F)c1-n1nccn1)[C@@H](C)CNc1ncc(C(F)(F)F)cc1C#N : provide Kb
OUTPUT: 0.021

INPUT: Item CCN(C(=O)c1cc(F)cnc1-n1nccn1)[C@@H](C)CNc1ccc(C(F)(F)F)cn1 : provide Kb
OUTPUT: 0.156
